- assay-target: full-length SARM1 (FL-SARM1) (Homo sapiens)
- method-description: FL-SARM1 cellular lysate assay (NAD/NADH-Glo readout of remaining NAD+)
- condition-label: Activity, SARM1 cellular lysate from transfected HEK293T cells, NAD+ and NMN, 11 point curve
parameter-measured: IC50

- molecule: "C[C@@H]1CC2C[C@@H](C1)N2C(=O)Nc1ccc(C2CC2)c(-c2cncc(F)c2)c1 (single isomer, unassigned)"
  IC50: "0.1 to 1000 nM"
- molecule: "Cc1ccc(NC(=O)N2C3C[C@@H]2C[C@@H](C(C)(C)O)C3)cc1-c1cncc(F)c1"
  IC50: "> 10000 nM"
- molecule: "COc1cncc(-c2cc(NC(=O)N3[C@@H]4C[C@@H](C)C[C@@]3(c3nnc(C)o3)C4)c(F)cc2C(F)(F)F)c1 (single isomer, unassigned) [Example 123]"
  IC50: "0.1 to 1000 nM"
- molecule: "Cc1ccc(NC(=O)N2C3CCCC2C3)cc1-c1ccc(C#N)nc1"
  IC50: "1000 to 10000 nM"
- molecule: "Cc1ccc(NC(=O)C2CCCN2C(=O)OC(C)(C)C)cc1-c1cncc(F)c1 (racemic)"
  IC50: "> 10000 nM"

Consider the molecule shown here: Cc1ccc(NC(=O)N2C3CCC2COC3)cc1-c1cncc(F)c1 What is its recorded IC50? 1000 to 10000 nM

Request the reported IC50 associated with COC(=O)[C@H]1C[C@@H]2C[C@H](C1)N2C(=O)Nc1ccc(C)c(-c2cncc(F)c2)c1 (single isomer, unassigned) 1000 to 10000 nM

Please give the measured IC50 for this molecule: Cc1cc(F)c(NC(=O)N2C3C[C@H](C)C[C@@H]2C3)cc1-c1cncc(F)c1 0.1 to 1000 nM

* * *

- assay-target: full-length SARM1 (FL-SARM1) (Homo sapiens, UniProt Q6SZW1)
- method-description: FL-SARM1 cellular lysate assay (NAD/NADH-Glo readout of remaining NAD+)
- condition-label: Activity (μM), SARM1 cellular lysate from transfected HEK293T cells, NAD+ and NMN, 11 point curve
parameter-measured: IC50 (µM)
Write the number in µM without appending the unit.

// known answers, use as guide
- molecule: "Cc1ccc(NC(=O)C2C3CC2CN(CC(F)(F)F)C3)cc1-c1cncc(F)c1 (stereo not shown)"
  uom: "µM"
  IC50: 0.8
- molecule: "Cc1ccc(NC(=O)N2C3CC[C@H](C(=O)N(C)C)[C@@H]2C3)cc1-c1cncc(F)c1"
  uom: "µM"
  IC50: 32.9
- molecule: "Cc1nnc([C@@]23C[C@@H](C)C[C@@H](C2)N3C(=O)Nc2ccc(Cl)c(-c3cncc(F)c3)c2)o1 (single isomer, unassigned)"
  uom: "µM"
  IC50: 0.02

Which IC50 value is on record for O=C(Nc1ccc(CCF)c(-c2cncc(F)c2)c1)N1C2CCCC1C2 ? 0.8

* * *

IC50 values for the compounds below.
- assay-target: full-length SARM1 (FL-SARM1) (Homo sapiens, UniProt Q6SZW1)
- method-description: FL-SARM1 cellular lysate assay (NAD/NADH-Glo readout of remaining NAD+)
- condition-label: Activity, SARM1 cellular lysate from transfected HEK293T cells, NAD+ and NMN, 11 point curve

Completed entries (count: 4):
- compound: "CCO[C@@H]1C[C@@H]2C[C@H](C1)N2C(=O)Nc1ccc(C)c(-c2cncc(F)c2)c1"
  IC50: "1000 to 10000 nM"
- compound: "Cc1ccc(NC(=O)C2CCCN2C2CCC2)cc1-c1cncc(F)c1 (racemic)"
  IC50: "> 10000 nM"
- compound: "C[C@H]1CC2C[C@@H](C1)N2C(=O)Nc1ccc(C#N)c(-c2cncc(F)c2)c1 (single isomer, unassigned)"
  IC50: "0.1 to 1000 nM"
- compound: "Cc1ccc(NC(=O)[C@H]2C[C@@](C#N)(C3CC3)C2)cc1-c1cncc(F)c1"
  IC50: "0.1 to 1000 nM"

GET /values?readout=IC50&item= COc1cncc(-c2cc(NC(=O)N3[C@@H]4C[C@@H](C)C[C@@]3(c3nnc(C)o3)C4)c(F)cc2C(F)(F)F)c1 (single isomer, unassigned) [Example 122] > 10000 nM

For the compound C[C@@H]1CC2C[C@@H](C1)N2C(=O)Nc1ccc(Cl)c(-c2cncc(F)c2)c1 (single isomer, unassigned) , what IC50 is on record? 0.1 to 1000 nM

Which IC50 value is on record for Cc1ccc(-c2cc(NC(=O)N3C4CCCC3C4)ccc2C)cn1 ? 0.1 to 1000 nM

* * *

- assay-target: full-length SARM1 (FL-SARM1) (Homo sapiens, UniProt Q6SZW1)
- Sequence (Q6SZW1 28-724): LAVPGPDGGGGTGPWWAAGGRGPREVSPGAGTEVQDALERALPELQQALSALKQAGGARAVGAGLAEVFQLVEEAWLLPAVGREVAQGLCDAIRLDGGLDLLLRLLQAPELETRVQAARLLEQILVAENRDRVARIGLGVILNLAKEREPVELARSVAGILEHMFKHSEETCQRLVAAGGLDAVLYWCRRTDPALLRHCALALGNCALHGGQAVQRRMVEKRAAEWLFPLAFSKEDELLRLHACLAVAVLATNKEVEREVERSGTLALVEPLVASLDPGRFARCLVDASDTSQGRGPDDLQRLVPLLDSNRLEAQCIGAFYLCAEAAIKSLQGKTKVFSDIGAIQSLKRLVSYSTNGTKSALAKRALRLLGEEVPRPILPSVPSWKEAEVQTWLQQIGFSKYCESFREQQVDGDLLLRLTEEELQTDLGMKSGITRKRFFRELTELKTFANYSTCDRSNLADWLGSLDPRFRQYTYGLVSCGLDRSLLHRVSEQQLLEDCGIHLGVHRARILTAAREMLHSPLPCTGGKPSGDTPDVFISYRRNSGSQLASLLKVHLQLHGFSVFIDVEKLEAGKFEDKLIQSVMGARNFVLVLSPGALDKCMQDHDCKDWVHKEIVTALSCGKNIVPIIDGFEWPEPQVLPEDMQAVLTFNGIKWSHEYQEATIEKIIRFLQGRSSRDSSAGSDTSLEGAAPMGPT
- method-description: FL-SARM1 cellular lysate assay (NAD/NADH-Glo readout of remaining NAD+)
- condition-label: Activity, SARM1 cellular lysate from transfected HEK293T cells, NAD+ and NMN, 11 point curve
pIC50: −log10 of the molar value.
We begin with a simple list: items and their reported pIC50.

- compound: "C[C@@H]1CC2C[C@H](C1)N2C(=O)Nc1ccc(C2CC2)c(-c2cncc(F)c2)c1 (single isomer, unassigned) [Example 51]"
  reported-value: "6.00 to 10.00"
- compound: "Cc1ccc(NC(=O)N2C3CC[C@H](C#N)[C@@H]2C3)cc1-c1cncc(F)c1 [Example 30]"
  reported-value: "5.00 to 6.00"
- compound: "Cc1ccc(NC(=O)N2C3CC2CC2(CC2)C3)cc1-c1cncc(F)c1 [Example 54]"
  reported-value: "6.00 to 10.00"

If you can, please state the reported pIC50 value of Cc1nnc([C@]23C[C@H](C)C[C@H](C2)N3C(=O)Nc2ccc(C(F)(F)F)c(-c3cncc(F)c3)c2)o1 (single isomer, unassigned) [Example 121] . 6.00 to 10.00

// lookup pIC50 for Cc1ccc(NC(=O)N2[C@@H]3C[C@H](C)C[C@H]2C3)cc1-c1cncc(F)c1 [Example 84] 6.00 to 10.00

Reported pIC50 for Cc1ncc(-c2cc(NC(=O)[C@@H]3CC3(F)F)ccc2C)cn1 [Example 111] : what is it? < 5.00

# pIC50 lookup, item Cc1ccc(NC(=O)N2C3CCCC2C3)cc1-c1cncc(C(F)(F)F)c1 [Example 116] 6.00 to 10.00

I have this compound here, Cc1ccc(NC(=O)N2C3CCCC2C3)cc1-c1cncc(OCF)c1 [Example 45] , and I need its recorded pIC50. 6.00 to 10.00

* * *

- assay-target: full-length SARM1 (FL-SARM1) (Homo sapiens, UniProt Q6SZW1)
- method-description: FL-SARM1 cellular lysate assay (NAD/NADH-Glo readout of remaining NAD+)
- condition-label: Activity, SARM1 cellular lysate from transfected HEK293T cells, NAD+ and NMN, 11 point curve
pIC50: −log10 of the molar value.
parameter-measured: pIC50

Consider the following illustrative entries.
- chemical-smiles: "Cc1ccc(NC(=O)N2C3CC2CC(F)(F)C3)cc1-c1cncc(F)c1"
  pIC50: "6.00 to 10.00"
- chemical-smiles: "Cc1ccc(NC(=O)[C@H]2C[C@H](C3CC3)C2)cc1-c1cncc(F)c1"
  pIC50: "5.00 to 6.00"
- chemical-smiles: "Cc1ccc(NC(=O)[C@@H]2CC2(F)F)cc1-c1cncc(F)c1"
  pIC50: "5.00 to 6.00"

Quick check: pIC50 of COC[C@H]1C2CCC[C@H]1N2C(=O)Nc1ccc(C)c(-c2cncc(F)c2)c1 ? < 5.00
